Where these numbers come from: patent US20240025949A1

# assayed_target: human angiotensin 2 type 1 receptor (human) (UniProt P30556)
# Sequence (P30556 whole entry): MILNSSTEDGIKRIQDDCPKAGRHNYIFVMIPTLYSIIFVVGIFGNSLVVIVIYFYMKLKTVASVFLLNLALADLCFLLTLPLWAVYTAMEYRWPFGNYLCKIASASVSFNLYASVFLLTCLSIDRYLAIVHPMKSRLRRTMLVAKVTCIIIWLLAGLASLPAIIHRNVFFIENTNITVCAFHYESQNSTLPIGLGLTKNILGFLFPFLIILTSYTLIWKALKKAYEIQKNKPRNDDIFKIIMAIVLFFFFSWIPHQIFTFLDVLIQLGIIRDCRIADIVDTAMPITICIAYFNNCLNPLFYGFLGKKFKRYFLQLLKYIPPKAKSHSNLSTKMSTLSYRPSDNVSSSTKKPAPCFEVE
# measurement_notes: cell-based or functional assay
Where no end group is shown, it is not given here.
measured_property: b-arrestin2 Max (%)

- binder: "RVYIHPRVYIHPRVYIHP (cyclic) [SEQ ID NO: 36 (Cyclo(Arg-Val-Tyr-Ile-His-Pro-Arg-Val-Tyr-Ile-His-Pro-Arg-Val-Tyr-Ile-His-Pro))]"
  unit_descriptor: "%"
  b-arrestin2 Max: 39.5
- binder: "DRVYYHP (D-residue; C-terminal amide) [SEQ ID NO: 58 (D-Asp-Arg-Val-Tyr-Tyr-His-Pro-NH2)]"
  unit_descriptor: "%"
  b-arrestin2 Max: 48.7
- binder: "ERVYYHP-NH2 [SEQ ID NO: 59 (Glu-Arg-Val-Tyr-Tyr-His-Pro-NH2)]"
  unit_descriptor: "%"
  b-arrestin2 Max: 19.5
- binder: "VYIHPF (cyclic) [SEQ ID NO: 38 (Cyclo(Val-Tyr-Ile-His-Pro-Phe))]"
  unit_descriptor: "%"
  b-arrestin2 Max: 43.1
- binder: "ERVYYHP (D-residue; C-terminal amide) [SEQ ID NO: 60 (D-Glu-Arg-Val-Tyr-Tyr-His-Pro-NH2)]"
  unit_descriptor: "%"
  b-arrestin2 Max: 44

I = ARVYIHPA (N-methyl residue; C-terminal acid) [SEQ ID NO: 34 (NMAla-Arg-Val-Tyr-Ile-His-Pro-Ala-OH)]
II = ERVYYHP (N-methyl; C-terminal amide) [SEQ ID NO: 62 (N-Me-Glu-Arg-Val-Tyr-Tyr-His-Pro-NH2)]
Response body: label of entry with the larger b-arrestin2 Max; valid values I , II . State your choice using its label.
I
